# procedure summary: enhancers of NFkB p65 translocation in HUVEC – imaging, IL-1B stimulus, high-content imaging, primary screen (AID 819);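 note: percent activation is computed from the nuclear over cytoplasmic p65 intensity ratio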
# condition info: HUVEC IL-1B NFkB p65 nuclear translocation imaging; at 2 µM; hits give high values
Screen size: about 94,000 compounds; about 280 (0.3%) were called active. This is one part of a sample in which actives are shown more often than they occur.
observation type: activation (%)
Answer in %, number only, no unit symbol.

- compound: "CCOC(=O)C1=C(c2ccccc2)N=C2SCC(=O)N2C1c1ccc(O)c(OC)c1 (configuration not stated)"
  activation, %: 22.6
- compound: "N#Cc1cc([N+](=O)[O-])ccc1Oc1cccc(/C=N/NC(=O)c2ccc(Cl)cc2)c1"
  activation, %: 1.88
- compound: "O=C(O)c1ccccc1-c1ccccc1C(=O)Nc1cccc2ccccc12"
  activation, %: 8.14

Query: Would you kindly share the measured activation for CN(C)c1ccc(NC(=S)N(CCc2ccccc2)C2CC(=O)N(c3c(Cl)cccc3Cl)C2=O)cc1 (configuration not stated) ?
Reply: -17.7

Query: Now the compound O=C(Cn1cncn1)N/N=C/c1c2ccccc2cc2ccccc12
Reply: -10.3

Query: And then COC(=O)CNC(c1ccccc1Cl)c1cc(Br)ccc1NC(=O)CCN1CCOCC1 (configuration not stated) , what is it?
Reply: 0.94

Query: And for CC(C)c1ccc(N2CCN(C(=O)c3ccccc3NC(=O)/C=C(\C(=O)O)c3ccccc3)CC2)cc1 ?
Reply: 24.1

Query: Repeat with CN(CC#CCC(c1ccccc1)c1ccccc1)C(C)(C)C
Reply: 6.49

Query: Repeat for the following compound: CCOC(=O)CSc1ncc(-c2cccc(Cl)c2)cn1
Reply: 4.13

Query: Another compound: O=C(Cc1ccccc1)Nc1c(C(=O)N2CCCCCC2)cnn1-c1ccccc1
Reply: -2.59

Query: Could you do the same for CCCCn1c(=S)[nH]c2cc(S(=O)(=O)N3CCCCC3)ccc21 , please?
Reply: 6.8

Query: Queued: CCNC(=S)NNC(=O)Cc1ccccc1
Reply: 0.95

Query: # repeat for O=C1C(=O)N(c2ccccc2)c2ccccc21
Reply: -1.05

Query: Now this one: CC(=O)c1cnc(SCCN2C(=O)c3ccccc3C2=O)nc1C
Reply: -4.03

Query: Also check CCOc1ccc(-c2c(C)n([O-])c3c([n+]2=O)CCCC3)cc1
Reply: 0.86

Query: Let us now turn to COc1ccc(OCC(=O)NNC(=O)c2ccc(-c3ccccc3)cc2)cc1
Reply: 21.4

Query: Try this compound next: COc1ccc(NC(=O)Cn2c(-c3ccc(OC)cc3)cn(-c3ccc(C)cc3)c2=O)cc1
Reply: 5.6

Query: Follow-up item: O=C(Nc1ccc(Br)c2cccnc12)c1ccc(Cn2cc([N+](=O)[O-])cn2)o1
Reply: 25.7

Query: Note, next up: Cc1cccc(-c2nc3c(c(SCC(=O)N4CCOCC4)n2)CCCC3)c1
Reply: 16.6

Query: Another compound: CCOC(=O)NNC(=O)c1ccc(Cl)cc1
Reply: -2.19

Query: Try this compound next: CC(C)(C)c1ccc(C(=O)NNC(=O)Cc2ccccc2)cc1
Reply: 41.9

Query: Another: Cc1nnc(SCC(=O)N/N=C/c2cn(-c3ccccc3)nc2-c2ccc(F)cc2)n1-c1ccccc1
Reply: -16.3
